Consider molecules characterized by their Kd with Cbl-b (residues 36-427) (Homo sapiens, UniProt Q13191).

Here are 3 molecules together with their reported answers.
C[C@H](Cc1nncn1C)c1cccc(N2Cc3c(ccnc3C3CCC3)C2=O)c1 :: 3000 to 10000 nM
CC(c1cccc(N2Cc3c(cccc3C(F)(F)F)C2=O)c1)C(F)(F)c1nncn1C (stereo not shown) :: < 100 nM
C[C@H](Sc1nncn1C)c1ccnc(NC(=O)c2cccc(C3CC3)n2)c1 :: 3000 to 10000 nM

Enquiry: What reported Kd corresponds to "C[C@H](Sc1nncn1C)c1ccnc(NC(=O)c2ccc3ccccc3n2)c1" on Cbl-b (residues 36-427) (Homo sapiens, UniProt Q13191)?
Return: 3000 to 10000 nM

Enquiry: What reported Kd corresponds to "C[C@H](Cc1nncn1C)c1cccc(NC(=O)c2cc(C(=O)N3C[C@@H](O)[C@H](F)C3)ccn2)c1" on Cbl-b (residues 36-427) (Homo sapiens, UniProt Q13191)?
Return: 100 to 300 nM

Enquiry: What reported Kd corresponds to "Cc1n[nH]c(C)c1-c1cc2c(c(C(F)(F)F)c1)CN(c1cccc([C@H](C)Cc3nncn3C)c1)C2=O" on Cbl-b (residues 36-427) (Homo sapiens, UniProt Q13191)?
Return: < 100 nM

Enquiry: What reported Kd corresponds to C=CCC(Sc1nncn1C)c1cccc(NC(=O)c2cc3ccccc3cn2)c1 (stereo not shown) on Cbl-b (residues 36-427) (Homo sapiens, UniProt Q13191)?
Return: > 10000 nM

Enquiry: What reported Kd corresponds to "C[C@H](Cc1nncn1C)c1cccc(NC(=O)c2cc(C(=O)N3C[C@@H](O)C[C@@H]3C)ccn2)c1" on Cbl-b (residues 36-427) (Homo sapiens, UniProt Q13191)?
Return: 3000 to 10000 nM

Enquiry: What reported Kd corresponds to "Cn1cnnc1C(F)(F)[C@](C)(F)c1cccc(N2Cc3c(cc(CN4CC[C@@H](S(C)(=O)=O)C4)cc3C(F)(F)F)C2=O)c1" on Cbl-b (residues 36-427) (Homo sapiens, UniProt Q13191)?
Return: < 100 nM

Enquiry: What reported Kd corresponds to "CCCOc1cc([C@H](C)Cc2nncn2C)cc(N2Cc3c(cccc3C(F)(F)F)C2=O)n1" on Cbl-b (residues 36-427) (Homo sapiens, UniProt Q13191)?
Return: 1000 to 3000 nM

Enquiry: What reported Kd corresponds to "C[C@H](Sc1nncn1C)c1cccc(NC(=O)c2cccc(CF)n2)c1" on Cbl-b (residues 36-427) (Homo sapiens, UniProt Q13191)?
Return: 1000 to 3000 nM

Enquiry: What reported Kd corresponds to "C[C@H](Cc1nncn1C)c1cccc(NC(=O)c2cc(O[C@@H]3CC[C@H](O)C3)ccn2)c1" on Cbl-b (residues 36-427) (Homo sapiens, UniProt Q13191)?
Return: 1000 to 3000 nM

====

The compounds listed here are annotated with their IC50.
Biological target: Cbl-b (Homo sapiens, UniProt Q13191)
Sequence (Q13191 36-427): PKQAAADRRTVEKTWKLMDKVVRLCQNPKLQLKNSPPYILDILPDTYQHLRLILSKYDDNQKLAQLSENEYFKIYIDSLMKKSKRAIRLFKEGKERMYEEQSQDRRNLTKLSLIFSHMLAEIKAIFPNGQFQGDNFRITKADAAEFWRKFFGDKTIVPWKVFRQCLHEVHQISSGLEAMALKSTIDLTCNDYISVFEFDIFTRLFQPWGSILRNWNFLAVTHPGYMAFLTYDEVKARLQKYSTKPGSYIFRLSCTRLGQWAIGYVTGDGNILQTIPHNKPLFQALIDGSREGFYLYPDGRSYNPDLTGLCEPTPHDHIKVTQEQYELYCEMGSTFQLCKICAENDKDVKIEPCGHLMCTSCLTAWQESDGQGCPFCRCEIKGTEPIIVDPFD
Test: Cbl-b activity assay (Cbl-b inhibition assay), TR-FRET of Cbl-b interaction with UbcH5B-Ub
Assay type: biochemical
Conditions: assay buffer with 100 mM NaCl, 60 nM Src kinase; read-out: Cbl-b activity IC50

Cc1cnnn1C[C@@H](C)c1cccc(NC(=O)c2cccc(C(F)(F)F)n2)c1 [Compound 312a] :: 100 to 300 nM

Enquiry: Returns the measured IC50 for the input compound. Input: "C[C@H](Cc1nncn1C)c1cccc(NC(=O)c2cc(C(=O)N3CC(S(C)(=O)=O)C3)ccn2)c1"
Return: 1000 to 3000 nM

====

Biological target: Cbl-b (Homo sapiens, UniProt Q13191)
Assay: Cbl-b activity assay (Cbl-b inhibition assay), TR-FRET of Cbl-b interaction with UbcH5B-Ub
Format: biochemical
Conditions: assay buffer with 100 mM NaCl, 60 nM Src kinase; read-out: Cbl-b activity IC50
The compounds listed here are annotated with their IC50.

C[C@H](Sc1nncn1C)c1cccc(NC(=O)c2cccc(N)c2)c1 [Compound 58] :: 3000 to 10000 nM

Enquiry: Returns the measured IC50 for the input compound. Input: C[C@H](Cc1nncn1C)c1cccc(NC(=O)c2cccc(CCO)n2)c1 [Compound 202]
Return: 301 to 1000 nM

====

Tested on: primary human total T-cells
Test: T-cell activation assessed by cytokine secretion (GM-CSF, IFNγ, TNFα)
Type: cell-based
Conditions: CD3/CD28 stimulation, 1.11 μM, read-out: IFNγ secretion
The compounds listed here are annotated with their fold induction at 1.11 µM.

C[C@H](Cc1nncn1C)c1cccc(NC(=O)c2nc(C(F)(F)F)c[nH]2)c1 :: < 2

Enquiry: Returns the measured fold induction at 1.11 µM for the input compound. Input: "Cn1cnnc1CC1(c2cccc(N3Cc4c(cc(CN5CC[C@H](C#N)C5)cc4C(F)(F)F)C3=O)c2)COC1"
Return: 3.01 to 4

Enquiry: Returns the measured fold induction at 1.11 µM for the input compound. Input: "Cn1cnnc1CC1(c2cccc(NC(=O)c3nc4c(C(F)(F)F)cccc4[nH]3)c2)COC1"
Return: > 4

====

Biological target: Cbl-b (Homo sapiens, UniProt Q13191)
Assay: Cbl-b activity assay (Cbl-b inhibition assay), TR-FRET of Cbl-b interaction with UbcH5B-Ub
Assay type: biochemical
Details: assay buffer with 100 mM NaCl, 60 nM Src kinase; read-out: Cbl-b activity IC50
pIC50: −log10 of the molar value.
The molecules listed here are annotated with their pIC50.

Cn1cnnc1CC1(c2cccc(N3Cc4c(cc(CN5CCOC(C)(C)C5)cc4C(F)(F)F)C3=O)c2)COC1 [Example 665] :: > 7.00
C[C@H](Sc1nncn1C)c1ccnc(NC(=O)c2cc(Cl)cc(C(F)(F)F)n2)c1 [Compound 105] :: 6.00 to 6.52
Cn1cnnc1[C@@H](F)C1(c2cccc(N3Cc4c(cc(CN5[C@@H]6CC[C@H]5C[C@@H](F)C6)cc4C(F)(F)F)C3=O)c2)COC1 [Example 672a] :: > 7.00
Cn1cnnc1C(F)(F)C(C)(F)c1cccc(N2Cc3c(cccc3C(F)(F)F)C2=O)c1 (racemic) [Compound 296] :: 6.00 to 6.52
Cc1cc(C(=O)Nc2cccc([C@@]3(Cc4nncn4C)CCOC3)c2)nc(C2CC2)n1 (single isomer, unassigned) [Compound 534b] :: > 7.00

Enquiry: Returns the measured pIC50 for the input molecule. Input: Cn1cnnc1CC1(c2cccc(NC(=O)c3nc(C4CC4)cs3)c2)COC1 [Compound 493]
Return: 6.00 to 6.52

Enquiry: Returns the measured pIC50 for the input molecule. Input: C[C@H](Cc1nncn1C)c1cccc(NC(=O)c2cc(C(=O)N3CC[C@](C)(O)C3)ccn2)c1 [Compound 222]
Return: 6.00 to 6.52

====

The compounds listed here are annotated with their fold induction at 8 µM.
Tested on: T-cell
Test: IL-2 secretion from T-cells stimulated with anti-CD3 antibody alone (Biological Example 2)
Format: cell-based, human
Conditions: T-cell; fold change over baseline; 8 μM Cbl-b inhibitor; primary human total T-cells; read-out: IL-2 secretion Anti-CD3 stimulation

C[C@H](Cc1nncn1C)c1cccc(NC(=O)c2cc3cc(N4CCN(C)C(=O)C4)ccc3cn2)c1 [Compound 209, 2,2,2-trifluoroacetate] :: > 0.201
C[C@H](Sc1nncn1C)c1cccc(NC(=O)c2cc3cc(OCc4ccn[nH]4)ccc3cn2)c1 :: 0.101 to 0.15
C[C@H](Sc1nncn1C)c1ccnc(NC(=O)c2cc(C3CC3)cc(C(F)(F)F)n2)c1 :: < 0.05
Cc1cc(C)nc(C(=O)Nc2cccc([C@H](C)Sc3nncn3C)c2)c1 :: < 0.05
C[C@H](Sc1nncn1C)c1ccnc(N2Cc3c(cccc3C(F)(F)F)C2=O)c1 [Compound 172a] :: < 0.05

Enquiry: Returns the measured fold induction at 8 µM for the input compound. Input: "Cn1cnnc1CC1(c2cccc(NC(=O)c3ccnc(C(F)(F)F)n3)c2)COC1"
Return: 0.151 to 0.2

Enquiry: Returns the measured fold induction at 8 µM for the input compound. Input: Cn1cnnc1C[C@](C)(F)c1cccc(N2Cc3c(cccc3C(F)(F)F)C2=O)c1 [Compound 298b]
Return: 0.101 to 0.15

Enquiry: Returns the measured fold induction at 8 µM for the input compound. Input: "C[C@H](Cc1nncn1C)c1cccc(N2Cc3c(cc(C4CC4)cc3C(F)(F)F)C2=O)c1"
Return: > 0.201

Enquiry: Returns the measured fold induction at 8 µM for the input compound. Input: C[C@H](Cc1nncn1C)c1cc(F)cc(N2Cc3c(cccc3C(F)(F)F)C2=O)c1 [Compound 281a]
Return: 0.051 to 0.1

Enquiry: Returns the measured fold induction at 8 µM for the input compound. Input: "C[C@H](Sc1nncn1C)c1cccc(N2Cc3c(ccnc3Cl)C2=O)c1"
Return: 0.101 to 0.15

Enquiry: Returns the measured fold induction at 8 µM for the input compound. Input: Cc1ccc(C(=O)Nc2cccc(C(C)Cc3nccn3C)c2)nc1C1CC1 (centres unmarked)
Return: 0.051 to 0.1

Enquiry: Returns the measured fold induction at 8 µM for the input compound. Input: "C[C@H](Cc1nnc[nH]1)c1cccc(N2Cc3c(cccc3C(F)(F)F)C2=O)c1"
Return: < 0.05

Enquiry: Returns the measured fold induction at 8 µM for the input compound. Input: "C[C@H](Cc1nncn1C)c1cccc(N2Cc3c(cc(C(=O)N4CC(O)C4)cc3C3CC3)C2=O)c1"
Return: > 0.201

Enquiry: Returns the measured fold induction at 8 µM for the input compound. Input: "C[C@H](Sc1nncn1C)c1cccc(NC(=O)c2cc(C3(O)COC3)cc(C(F)(F)F)n2)c1"
Return: < 0.05

Enquiry: Returns the measured fold induction at 8 µM for the input compound. Input: "C[C@H](Cc1nncn1C)c1ccnc(NC(=O)c2cccc(C(F)(F)F)n2)c1"
Return: 0.051 to 0.1

Enquiry: Returns the measured fold induction at 8 µM for the input compound. Input: "Cn1cnnc1CC1(c2cccc(NC(=O)c3cc(C4CC4)nc(C4CC4)n3)c2)COC1"
Return: > 0.201

Enquiry: Returns the measured fold induction at 8 µM for the input compound. Input: "C[C@H](Sc1nncn1C)c1cccc(NC(=O)c2cc(C(F)(F)F)ccn2)c1"
Return: 0.101 to 0.15

Enquiry: Returns the measured fold induction at 8 µM for the input compound. Input: "C[C@H](Cc1nncn1C)c1cccc(NC(=O)c2ccnc(C3CC3)n2)c1"
Return: > 0.201
